biological target: Homeobox protein Hox-A13 (Mus musculus); experiment: disruptors of Hoxa13 oligonucleotide interaction – biochemical, fluorescence polarization, labeled oligonucleotide, primary screen (AID 1185); conditions: Hoxa13:DNA binding, 15 min, higher = more signal, called active from +8 up or from −8 down
Activity calls are given as the source filed them.
Property Label: z-score

{"Given Smiles": "O=C(N1CCCCC1)[C@]1(CCS(=O)(=O)c2ccccc2)N=C(c2ccc(OCCCO)cc2)O[C@@H]1c1ccccc1", "z-score": "-5.68 (inactive)"}
{"Given Smiles": "C=C[C@H](OC)[C@@H](OC(=O)Nc1ccc(SC)cc1)c1ccc(OCCO)cc1", "z-score": "-5.62 (inactive)"}
{"Given Smiles": "CCCNC(=O)[C@@]1(c2ccc([N+](=O)[O-])cc2)CC(=O)N(CC23CC4CC(CC(C4)C2)C3)[C@@H]1c1ccc(CO)cc1I", "z-score": "-3.75 (inactive)"}

Please find the next molecule below.
Input line: z-score lookup needed for COC(=O)[C@@]1(Cc2ccc(OC)cc2)[C@H]2c3cc(C(=O)N4CCCC4)n(CCc4ccccn4)c3C[C@H]2CN1C(=O)c1ccccc1 , thanks.
Output line: -5.3 (inactive)
